Endpoint name: melting point

Which melting point value belongs to `O=S(=O)(NN=C(Cl)c1ccccc1Br)c1ccccc1` ?
120 to 122 °C

Which melting point value belongs to `CCOC(=O)Cc1c2c(nn1CC)c(=O)[nH]c1ccccc12` ?
233 to 235 °C

Which melting point value belongs to COc1cc2ncc(OC3CC4CC3C(O)C4O)nc2cc1OC (stereo unspecified) ?
85 to 88 °C

Which melting point value belongs to O=C1CC(Cc2ccc(F)cc2)CN1 (stereo unspecified) ?
88.5 to 90 °C

Which melting point value belongs to `Cc1cc(=O)[nH]c2cc(OCCCN3CCC(NC(=O)c4ccccc4)CC3)ccc12` ?
275 to 276 °C

Which melting point value belongs to `COc1ccc2c(c1)C(=NO)CCO2` ?
120 to 121 °C
